- assay.procedure: Biodistribution in ICR mouse neck at 7.4 kBq, iv upto 24 hrs
- Format: ADME, organism-based
- conditions.used: in vivo
quantity: Drug uptake

Some solved cases for reference:
> print(dat)
                                   molecule         val
1      O=[N+]([O-])c1nccn1CC(CO)(CO)C[125I]  Not Active
2      CCC(CC)(C[125I])Cn1ccnc1[N+](=O)[O-]      Active
3  O=C(NCCn1ccnc1[N+](=O)[O-])c1cccc([211At])c1      Active
4  CCC(CO)(C[125I])Cn1ccnc1[N+](=O)[O-] (stereo unspecified)  Not Active
5  O=C(NCCn1ccnc1[N+](=O)[O-])c1cccc([125I])c1  Not Active

Please look up its Drug uptake: O=[N+]([O-])c1nccn1CC(CO)(CO)C[211At]
Not Active

* * *

- assay.procedure: Biodistribution in ICR mouse assessed as blood clearance by measuring elimination rate at 7.4 kBq, iv upto 24 hrs
- Assay type: ADME, organism-based
- conditions.used: in vivo
quantity: CL

> print(dat)
                                   compound         val
1  O=C(NCCn1ccnc1[N+](=O)[O-])c1cccc([125I])c1      Active
2      O=[N+]([O-])c1nccn1CC(CO)(CO)C[125I]      Active
3      CCC(CC)(C[125I])Cn1ccnc1[N+](=O)[O-]  Not Active
4     O=[N+]([O-])c1nccn1CC(CO)(CO)C[211At]      Active
5  O=C(NCCn1ccnc1[N+](=O)[O-])c1cccc([211At])c1  Not Active

// next item, CL requested
Please look up its CL: CCC(CO)(C[125I])Cn1ccnc1[N+](=O)[O-] (stereo unspecified)
Active

* * *

- assay.procedure: Metabolic stability in mouse liver microsomes assessed as intact fractions at 0.3 MBq preincubated for 5 min measured by TLC analysis
- Format: ADME, Microsome
- conditions.used: read-out: Stability
quantity: remaining at 5 min, 0.3 MBq (%)
Your answer is read as %, so omit the unit and give the number.

Please look up its remaining at 5 min, 0.3 MBq: O=[N+]([O-])c1nccn1CC(CO)(CO)C[211At]
96.9

* * *

- assay.procedure: Metabolic stability in mouse liver microsomes assessed as intact fractions at […] preincubated for 5 min measured by TLC followed by RP-HPLC
- Assay type: ADME, Microsome
- conditions.used: read-out: Activity
Assign remaining at 5 min to each entry below.

Please look up its remaining at 5 min: O=[N+]([O-])c1nccn1CC(CO)(CO)C[211At]
96.9%

Please look up its remaining at 5 min: O=C(O)[C@H]1O[C@@H](OCC(CO)(C[125I])Cn2ccnc2[N+](=O)[O-])[C@H](O)[C@@H](O)[C@@H]1O (some centres undefined)
> 99.8%

Please look up its remaining at 5 min: CCC(C[125I])(CO[C@@H]1O[C@H](C(=O)O)[C@@H](O)[C@H](O)[C@H]1O)Cn1ccnc1[N+](=O)[O-] (some centres undefined)
> 99.8%

Please look up its remaining at 5 min: O=[N+]([O-])c1nccn1CC(CO)(CO)C[125I]
> 99.8%

* * *

- assay.procedure: Metabolic stability in mouse liver microsomes assessed as retention time at […] measured after 5 mins by RP-HPLC
- Type: ADME, Microsome
Assign Retention_time to each entry below.

Please look up its Retention_time: CCC(C[125I])(CO[C@@H]1O[C@H](C(=O)O)[C@@H](O)[C@H](O)[C@H]1O)Cn1ccnc1[N+](=O)[O-] (stereo partly drawn)
< 0.2 min

Please look up its Retention_time: O=[N+]([O-])c1nccn1CC(CO)(CO)C[125I]
< 0.2 min

Please look up its Retention_time: O=C(O)[C@H]1O[C@@H](OCC(CO)(C[125I])Cn2ccnc2[N+](=O)[O-])[C@H](O)[C@@H](O)[C@@H]1O (stereo partly drawn)
< 0.2 min
